From: the supplement of paper PMC11003180

Exercise: for every item that follows, state its recorded drug sensitivity score.
Tested on: MDCK p60AmotL2-inducible + doxycycline (p60AmotL2 expressing)
assayExplanation: drug sensitivity score (DSS) from 5-dose viability curve (DSS (area-based score, 0 = no response)); higher = more sensitive (stronger viability inhibition); extreme values may be limits of the assay
measurementParameters: doxycycline: 10 ng/mL; 72 h
// print number alone

drug sensitivity score value, target or system MDCK p60AmotL2-inducible + doxycycline (p60AmotL2 expressing), for CC[C@@H]1C(=O)N(C)c2cnc(Nc3ccc(C(=O)N[C@H]4CC[C@H](N5CCN(CC6CC6)CC5)CC4)cc3OC)nc2N1C(C)C : 17.4

drug sensitivity score value, target or system MDCK p60AmotL2-inducible + doxycycline (p60AmotL2 expressing), for O=C(NC1CCNCC1)c1n[nH]cc1NC(=O)c1c(Cl)cccc1Cl : 9.1

drug sensitivity score value, target or system MDCK p60AmotL2-inducible + doxycycline (p60AmotL2 expressing), for Cc1cc(Nc2cc(CN3CCOCC3)c3nc(C)c(Cc4ccc(Cl)cc4F)n3n2)n[nH]1 : 8.2

drug sensitivity score value, target or system MDCK p60AmotL2-inducible + doxycycline (p60AmotL2 expressing), for O=C(O)CNC(=O)c1c(O)c2ccccc2n(Cc2ccccc2)c1=O : 0

drug sensitivity score value, target or system MDCK p60AmotL2-inducible + doxycycline (p60AmotL2 expressing), for Nc1nc(Cl)nc2c1ncn2[C@@H]1O[C@H](CO)[C@@H](O)[C@@H]1F : 13.8

drug sensitivity score value, target or system MDCK p60AmotL2-inducible + doxycycline (p60AmotL2 expressing), for O=C(/C=C\n1cnc(-c2cc(C(F)(F)F)cc(C(F)(F)F)c2)n1)NNc1ccccn1 [Verdinexor] : 10.1

drug sensitivity score value, target or system MDCK p60AmotL2-inducible + doxycycline (p60AmotL2 expressing), for COc1cc(CCc2cc(NC(=O)c3ccc(N4CC(C)NC(C)C4)cc3)n[nH]2)cc(OC)c1 (configuration not stated) : 0

drug sensitivity score value, target or system MDCK p60AmotL2-inducible + doxycycline (p60AmotL2 expressing), for O=C(/C=C/c1cccnc1)NCCCCC1CCN(C(=O)c2ccccc2)CC1 : 29.3

drug sensitivity score value, target or system MDCK p60AmotL2-inducible + doxycycline (p60AmotL2 expressing), for O=C(Nc1nc2cccc(-c3ccc(CN4CCS(=O)(=O)CC4)cc3)n2n1)C1CC1 : 0

drug sensitivity score value, target or system MDCK p60AmotL2-inducible + doxycycline (p60AmotL2 expressing), for COc1ncc(-c2ccc3nccc(-c4ccnnc4)c3c2)cc1NS(=O)(=O)c1ccc(F)cc1F : 20.2

drug sensitivity score value, target or system MDCK p60AmotL2-inducible + doxycycline (p60AmotL2 expressing), for CNc1nc(-c2ccc3c(N)n[nH]c3c2)cc(N2C[C@@H](C(=O)NC3CCCCC3)CC[C@H]2C)n1 : 0

drug sensitivity score value, target or system MDCK p60AmotL2-inducible + doxycycline (p60AmotL2 expressing), for CCCOc1ccn2c(C(C)=O)cc(-c3ccccc3S(C)(=O)=O)c2c1 : 0

drug sensitivity score value, target or system MDCK p60AmotL2-inducible + doxycycline (p60AmotL2 expressing), for Nc1nc2[nH]cnc2c(=S)[nH]1 : 1.5

drug sensitivity score value, target or system MDCK p60AmotL2-inducible + doxycycline (p60AmotL2 expressing), for CN1CCN(c2ccc3nc(-c4c(N)c5c(F)cccc5[nH]c4=O)[nH]c3c2)CC1 : 0

drug sensitivity score value, target or system MDCK p60AmotL2-inducible + doxycycline (p60AmotL2 expressing), for FC(F)(F)c1ccc(CNc2ccc(Cc3c[nH]c4ncc(Cl)cc34)cn2)cn1 : 0.1

drug sensitivity score value, target or system MDCK p60AmotL2-inducible + doxycycline (p60AmotL2 expressing), for NC1(c2ccc(-c3nc4ccn5c(=O)[nH]nc5c4cc3-c3ccccc3)cc2)CCC1 : 0

drug sensitivity score value, target or system MDCK p60AmotL2-inducible + doxycycline (p60AmotL2 expressing), for NC(=O)c1cccc(-c2cccc(OC(=O)NC3CCCCC3)c2)c1 : 0
